Numbers sourced from patent US20260274955A1.

Here the recorded Anti-CD28 Fab (SEQ ID NOs: 202, 203) signal is given for each entry.
Biological target: T1, anti-CD28 Fab (SEQ ID NOs: 202, 203)
T1 construct: biotinylated and captured on neutravidin coated plates in the phage ELISA
T1 sequence (VH, as listed by the source, chain 1 of 2): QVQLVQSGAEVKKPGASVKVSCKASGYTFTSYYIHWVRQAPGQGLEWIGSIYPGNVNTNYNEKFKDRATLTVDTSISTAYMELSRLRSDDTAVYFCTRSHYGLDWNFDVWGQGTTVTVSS
T1 sequence (VL, as listed by the source, chain 2 of 2): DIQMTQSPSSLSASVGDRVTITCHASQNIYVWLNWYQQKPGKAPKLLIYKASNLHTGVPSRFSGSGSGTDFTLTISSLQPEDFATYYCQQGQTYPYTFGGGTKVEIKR
Assay: phage binding ELISA; biotinylated Fab on neutravidin plate;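 note: clonal phage supernatants added to Fab wells pretreated with CD28 antigen or with blocking buffer only, bound phage read out via HRP-linked anti-M13 antibody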

Would you please look over these solved cases?
binder	recordedResult
YCDGHLPEYIFKCL [Phage-416]	1.73
YCDGHSQEYMLKCL [Phage-392]	1.76
YCAGHLQEYMQKCL [Phage-445]	1.69

Now for the binder whose Anti-CD28 Fab (SEQ ID NOs: 202, 203) signal we want.
// query What does the data say about its Anti-CD28 Fab (SEQ ID NOs: 202, 203) signal? Entry: YCDGHSQEYMWKCL [Phage-305]
// result 1.9
